Listed here are molecules together with their documented TGI.
- System: HOP-18 NSCLC
- assayProtocol: NCI tumour cell line growth inhibition, 48 h
quantityMeasured: TGI

[
  {
    "molecule": "O=C(Cn1cc(I)c(C(=O)NCC(O)CO)n1)NCC(O)CO (stereo unspecified)",
    "quantityMeasured": "TGI",
    "observedMeasurement": "> 100 µM"
  },
  {
    "molecule": "Cn1cnc([N+](=O)[O-])c1Sc1nnc(-c2ccc(Cl)cc2)n1C",
    "quantityMeasured": "TGI",
    "observedMeasurement": "18.1 µM"
  },
  {
    "molecule": "NC1=NN(c2ccccc2)C(=O)C1/C(=N\\NC(=O)c1cc2ccccc2cc1O)C(=O)Nc1ccc(Cl)c(Cl)c1 (stereo unspecified)",
    "quantityMeasured": "TGI",
    "observedMeasurement": "> 100 µM"
  },
  {
    "molecule": "Cc1nc2cc3[nH]c4ccccc4c(=O)c3cc2s1",
    "quantityMeasured": "TGI",
    "observedMeasurement": "> 100 µM"
  },
  {
    "molecule": "CC1O[C@@H]2CCCCC(=O)[C@]2(C)[C@H]1C (stereo partly specified)",
    "quantityMeasured": "TGI",
    "observedMeasurement": "> 100 µM"
  },
  {
    "molecule": "COC(=O)C12CCC(CC1=O)C2(C)C (stereo unspecified)",
    "quantityMeasured": "TGI",
    "observedMeasurement": "> 100 µM"
  },
  {
    "molecule": "Clc1cc2ns[s+]c2cc1Cl",
    "quantityMeasured": "TGI",
    "observedMeasurement": "> 69.3 µM"
  },
  {
    "molecule": "CCN1CC2(CO)CCC(OC)C34C5CC6C(OC)CC(O)(C5C6OC)C(O)(C(OC)C23)C14 (stereo unspecified)",
    "quantityMeasured": "TGI",
    "observedMeasurement": "> 375 µM"
  },
  {
    "molecule": "O=C1C(Nc2ccc(S(=O)(=O)Nc3cnc4ccccc4n3)cc2)=CC(=Nc2ccc(S(=O)(=O)Nc3cnc4ccccc4n3)cc2)c2ccccc21",
    "quantityMeasured": "TGI",
    "observedMeasurement": "26.9 µM"
  },
  {
    "molecule": "CC(C)C(N=C1CC2CCC1(C(=O)Nc1ccccc1O)C2(C)C)c1ccccc1 (stereo unspecified)",
    "quantityMeasured": "TGI",
    "observedMeasurement": "> 10 µM"
  },
  {
    "molecule": "COc1ccc(/C=N/NC(=O)NCCNCCO)cc1",
    "quantityMeasured": "TGI",
    "observedMeasurement": "> 100 µM"
  }
]

----------
- System: RPMI-8226 leukemia
- assayProtocol: NCI tumour cell line growth inhibition, 48 h; in the data active = GI50 below about 0.43 µM; inactive = the rest
Possible outcomes: active, inactive

[
  {
    "molecule": "c1ccc2cc(Cn3c(-c4cccc5ccccc45)[n+](Cc4ccc5ccccc5c4)c4c5ccccc5c5ccccc5c43)ccc2c1",
    "group": "active"
  },
  {
    "molecule": "CCCN1CCN(c2ccc3nc(-c4ccc5nc(-c6ccc(OCC)cc6)[nH]c5c4)[nH]c3c2)CC1",
    "group": "active"
  },
  {
    "molecule": "Nc1ncnc2c1ncn2Cc1ccc(CCl)cc1",
    "group": "inactive"
  },
  {
    "molecule": "Cc1cc(C2CC(O)C(CO)O2)c(Br)cc1Br (centres undefined)",
    "group": "inactive"
  }
]

----------
- Tested on: MDA-MB-435
Possible outcomes: active, inactive

[
  {
    "compound": "Fc1ccc(Nc2ccnc(N3CCN(c4ccnc5cc(Cl)ccc45)CC3)n2)cc1",
    "group": "inactive"
  },
  {
    "compound": "CC(=O)Nc1ccc2c(c1)[nH]c(=O)c1cc(NC(C)=O)ccc12",
    "group": "inactive"
  },
  {
    "compound": "Cc1cc(S(=O)(=O)Nc2nc3ccccc3s2)c(SCc2ccccc2)cc1Cl",
    "group": "inactive"
  },
  {
    "compound": "CCN(Cc1c(F)cccc1C(F)(F)F)c1ccc(CO)c(Cl)c1",
    "group": "inactive"
  },
  {
    "compound": "CS(=O)(=O)Nc1cc(-c2ccc3ncnc(Nc4ccc(OCc5ccccn5)c(Cl)c4)c3c2)cnc1Cl",
    "group": "active"
  },
  {
    "compound": "COc1cc2cc(C(=O)Nc3ccccc3)c(N)nc2cc1OC",
    "group": "inactive"
  },
  {
    "compound": "Cc1ccccc1N=C(c1ccccc1)C1C(=O)c2ccccc2C1=O",
    "group": "inactive"
  },
  {
    "compound": "Cc1cc(C2CC(O)C(CO)O2)c(Br)cc1Br (stereo not drawn)",
    "group": "inactive"
  },
  {
    "compound": "Nc1ncnc2c1ncn2Cc1ccc(CCl)cc1",
    "group": "inactive"
  },
  {
    "compound": "CC(C)Cc1cc(-c2cccn2C)c(C#N)c(=O)[nH]1",
    "group": "inactive"
  },
  {
    "compound": "CC1(/C=C/c2ccc(-c3ccccc3)cc2)CCn2cnc3ncnc(c32)N1O (stereo not drawn)",
    "group": "inactive"
  },
  {
    "compound": "COC1C[C@H](O[C@@H]2C[C@H](O[C@@H]3C[C@H](O[C@@H]4C(=O)c5c(cc6cc(O[C@H]7C[C@@H](O[C@H]8C[C@@H](O)[C@H](O)C(C)O8)[C@H](O)C(C)O7)c(C)c(O)c6c5O)C[C@H]4C(OC)C(=O)[C@@H](O)[C@@H](C)O)OC(C)[C@H]3O)OC(C)[C@@H]2O)OC(C)[C@@H]1O (stereo partly drawn)",
    "group": "active"
  },
  {
    "compound": "O=[N+]([O-])c1ccc(NC(c2ccccc2)c2ccc3cccnc3c2O)cc1 (stereo not drawn)",
    "group": "active"
  }
]

----------
- Tested on: UACC-62 melanoma
- assayProtocol: NCI tumour cell line growth inhibition, 48 h
Listed here are molecules together with their documented TGI.

[
  {
    "molecule": "CC(C)(C)c1ccc(OCCOc2ccc(C(C)(C)C)cc2NC=O)c(NC=O)c1",
    "unitAnnotation": "µM",
    "valuePrefix": "=",
    "TGI": 28.1
  },
  {
    "molecule": "C=C1C(O)C2OC(=O)C(=C)C2C(OC(=O)/C(C)=C/C)CC2(C)OC2C2OC12 (stereo not given)",
    "unitAnnotation": "µM",
    "valuePrefix": "=",
    "TGI": 48.2
  },
  {
    "molecule": "CC(=O)OCc1cc[c]([Hg][Cl])o1",
    "unitAnnotation": "µM",
    "valuePrefix": "=",
    "TGI": 11.3
  },
  {
    "molecule": "O=c1oc2c(Cl)cc(Cl)cc2cc1-c1cn2c(n1)sc1ccccc12",
    "unitAnnotation": "µM",
    "valuePrefix": ">",
    "TGI": 100
  },
  {
    "molecule": "O=C(Cn1cc(I)c(C(=O)NCC(O)CO)n1)NCC(O)CO (stereo not given)",
    "unitAnnotation": "µM",
    "valuePrefix": ">",
    "TGI": 100
  }
]

----------
- Test system: SF-539 CNS
- assayProtocol: NCI tumour cell line growth inhibition, 48 h
quantityMeasured: TGI

[
  {
    "molecule": "CC(=O)Nc1ccc(S(=O)(=O)Nc2cnc3ccccc3n2)cc1",
    "observedMeasurement": "> 100 µM"
  },
  {
    "molecule": "CCN1C(=O)N(CC)C2C1NN=c1s/c(=C\\c3ccc(Br)cc3)c(=O)n12 (stereo not given)",
    "observedMeasurement": "5.87 µM"
  },
  {
    "molecule": "CN(CCCNC(=O)c1[nH]nc2c1ccc1ccccc12)CCCNC(=O)c1[nH]nc2c1ccc1ccccc12",
    "observedMeasurement": "24 µM"
  },
  {
    "molecule": "CCCCCCCC(=O)[O-].N.N.N.N.N.[Co+3].[O-][Cl+3]([O-])([O-])[O-]",
    "observedMeasurement": "> 100 µM"
  },
  {
    "molecule": "Cc1cc(C2CC(O)C(CO)O2)c(Br)cc1Br (stereo not given)",
    "observedMeasurement": "> 100 µM"
  },
  {
    "molecule": "c1ccc(C2SCc3nc4ccccc4n32)cc1 (stereo not given)",
    "observedMeasurement": "> 100 µM"
  },
  {
    "molecule": "Clc1ccc(Nc2nnc(COc3ccccc3)c3ccccc23)cc1",
    "observedMeasurement": "7.58 µM"
  },
  {
    "molecule": "O=C(O)[C@@H](Cc1ccccc1)NS(=O)(=O)c1ccc(-c2ccccc2)cc1",
    "observedMeasurement": "> 100 µM"
  },
  {
    "molecule": "CC(=O)[C@H]1CC[C@@H]2[C@]1(C)CC=C1[C@]23C=C[C@]2(C[C@@H](O)CC[C@]12C)C(C(=O)O)C3C(=O)O (stereo not given in full)",
    "observedMeasurement": "> 100 µM"
  },
  {
    "molecule": "O=C(NC1CCCCC1)N1CCNC1=S",
    "observedMeasurement": "> 100 µM"
  }
]
